Biological target: T1, ecdTDR F281 alanine mutant (Arabidopsis thaliana, UniProt Q9FII5 30-642, alanine substitution of F281)
T1 sequence: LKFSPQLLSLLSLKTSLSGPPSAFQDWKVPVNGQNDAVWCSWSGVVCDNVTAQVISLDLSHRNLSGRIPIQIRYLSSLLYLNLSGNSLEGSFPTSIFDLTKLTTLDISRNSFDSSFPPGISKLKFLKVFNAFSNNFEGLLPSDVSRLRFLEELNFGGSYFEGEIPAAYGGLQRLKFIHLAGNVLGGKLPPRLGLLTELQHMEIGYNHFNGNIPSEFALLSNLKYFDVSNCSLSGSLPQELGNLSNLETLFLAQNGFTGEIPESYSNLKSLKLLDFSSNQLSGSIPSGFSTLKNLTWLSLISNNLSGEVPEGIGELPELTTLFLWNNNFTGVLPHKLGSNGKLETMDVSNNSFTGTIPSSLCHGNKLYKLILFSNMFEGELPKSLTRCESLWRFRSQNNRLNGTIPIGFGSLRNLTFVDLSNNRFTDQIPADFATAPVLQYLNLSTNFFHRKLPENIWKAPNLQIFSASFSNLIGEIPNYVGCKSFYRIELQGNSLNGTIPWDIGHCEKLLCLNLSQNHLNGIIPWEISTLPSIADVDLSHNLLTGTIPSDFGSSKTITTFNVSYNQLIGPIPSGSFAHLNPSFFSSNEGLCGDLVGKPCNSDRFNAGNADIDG
Assay: ITC
pKd: −log10 of the molar value. Square brackets hold non-standard residues; d marks the D form. Ends that are not written are not given here. Hyp = O=C(O)[C@@H]1C[C@@H](O)CN1
value-kind: pKd

{"columns": ["binder", "measured-value"],
 "data": [
  ["HEV[Hyp]SG[Hyp]NPISN (TDIF, the 12-residue CLE peptide processed from CLE41 and CLE44 of A. thaliana; printed as HEV(Hyp)SG(Hyp)NPISN; numbers count on: the 12-residue peptide; CLE44 encodes the same peptide; also called wild type TDIF; wtTDIF; source: synthetic peptide (peptide 2.0)) [Tracheary Element Differentiation Inhibitory Factor (TDIF) peptide]", 6.10]
]}
